Catalogue of compounds with associated IC50
TESTED_ON: USP7 (Homo sapiens)
Construct: His tag (from pFastBac-HT vector) (N); made in house; host or cells: insect cells (Sf9 or High Five), baculovirus
Sequence (Q93009 whole entry): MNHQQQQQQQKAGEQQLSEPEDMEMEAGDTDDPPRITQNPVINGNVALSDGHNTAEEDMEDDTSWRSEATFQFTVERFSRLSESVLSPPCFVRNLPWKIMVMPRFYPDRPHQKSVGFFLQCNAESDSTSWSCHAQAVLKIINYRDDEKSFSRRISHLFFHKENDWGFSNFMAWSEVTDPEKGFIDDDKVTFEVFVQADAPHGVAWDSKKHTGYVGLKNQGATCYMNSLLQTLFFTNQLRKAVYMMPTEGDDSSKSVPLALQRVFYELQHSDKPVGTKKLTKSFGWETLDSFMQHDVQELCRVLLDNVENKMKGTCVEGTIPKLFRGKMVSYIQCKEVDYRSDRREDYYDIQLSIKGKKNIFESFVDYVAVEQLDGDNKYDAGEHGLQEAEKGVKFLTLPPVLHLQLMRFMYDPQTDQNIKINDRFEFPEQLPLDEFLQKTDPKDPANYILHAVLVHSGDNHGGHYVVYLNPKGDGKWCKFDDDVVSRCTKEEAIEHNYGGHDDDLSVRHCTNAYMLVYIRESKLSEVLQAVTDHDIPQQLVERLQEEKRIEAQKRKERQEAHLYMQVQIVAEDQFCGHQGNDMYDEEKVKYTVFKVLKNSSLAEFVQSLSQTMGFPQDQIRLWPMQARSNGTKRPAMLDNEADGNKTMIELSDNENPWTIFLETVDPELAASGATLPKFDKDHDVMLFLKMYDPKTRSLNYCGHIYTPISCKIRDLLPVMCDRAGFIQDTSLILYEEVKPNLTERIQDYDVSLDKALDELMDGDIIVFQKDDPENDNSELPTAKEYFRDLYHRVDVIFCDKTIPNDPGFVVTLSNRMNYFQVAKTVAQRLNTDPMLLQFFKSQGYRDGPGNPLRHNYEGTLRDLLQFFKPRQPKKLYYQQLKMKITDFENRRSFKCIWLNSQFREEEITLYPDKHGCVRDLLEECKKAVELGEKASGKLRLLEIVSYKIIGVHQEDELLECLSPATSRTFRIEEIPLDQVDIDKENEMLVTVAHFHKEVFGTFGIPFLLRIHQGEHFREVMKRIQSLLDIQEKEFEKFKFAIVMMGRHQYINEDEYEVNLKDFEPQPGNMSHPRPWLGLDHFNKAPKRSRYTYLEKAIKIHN
PROTOCOL_SUMMARY: USP7 activity assay
Format: biochemical
Just the number in µM, nothing appended.

Consider the worked cases shown below.
N#Cc1nc2c(nc1C(N)=O)-c1ccccc1/C2=N\OCC(=O)O : 4.03
C=CCON=C1c2ccccc2-c2nc(C(N)=O)c(C#N)nc21 [Example 34a] : 0.5

Query CC(=O)O/N=C1\c2ccccc2-c2nc(C(N)=O)c(C#N)nc21 (single isomer, unassigned) on USP7 (Homo sapiens); IC50 returned: 0.506
